Tested on: NCI-H460 lung
assay details: NCI-60 one-dose screen, 48 h (100 = growth as untreated, 0 = no growth, -100 = all killed)
condition: 10 µM unless noted
About 83,000 compounds went through this panel and 20% of them were active in at least one assay; those are over-represented in the sample as a whole. The source made the active and inactive calls. How the source made its calls: active means growth percent below 10; inactive means the rest.
# growth annotations

INSERT INTO assay_data (molecule, property_label, data_value) VALUES
  ('O=c1oc2ccc(-c3ccc(F)cc3F)cc2c(=O)n1-c1ccc(Br)cc1F', 'growth', '45.9% (inactive)'),
  ('O=S1SC(c2ccccc2)=NN1c1cc(F)cc(F)c1 (stereo unspecified)', 'growth', '19.6% (inactive)'),
  ('Cc1[nH]c(C(=O)Nc2ccc(S(=O)(=O)N3CCCCC3)cc2OCCOCCOCCOCCOCCOCCOCCOCCOCCOc2cc(S(=O)(=O)N3CCCCC3)ccc2NC(=O)c2[nH]c(C)c3c2CCCCC3=O)c2c1C(=O)CCCC2', 'growth', '35.6% (inactive)'),
  ('O=C(CCCCCC/C=C\c1csc(Br)n1)NO', 'growth', '85.8% (inactive)'),
  ('C/C(=C(\c1ccc(O)cc1)c1ccc(OCCN2CCCCCC2)cc1)c1ccc(Cl)cc1', 'growth', '-55.9% (active)'),
  ('CN1CCN(CCCCCC(=O)Nc2nc(-c3cccc(NS(=O)(=O)c4cccc5c(N(C)C)cccc45)c3)cs2)CC1', 'growth', '79.3% (inactive)'),
  ('Cc1cccc(N2CCN(C3=C(Cl)C(=O)c4ncccc4C3=O)CC2)c1', 'growth', '58.4% (inactive)'),
  ('CCCCc1nc2c(N)nc3ccccc3c2n1Cc1ccc(OC)cc1', 'growth', '63.3% (inactive)'),
  ('CC1(C)CC[C@]23CC[C@]4(C)[C@H](CC[C@@H]5[C@@]6(C)CC[C@H](N)C(C)(C)[C@@H]6CC[C@]54C)[C@H]2[C@H]1OC3', 'growth', '-34.8% (active)'),
  ('CCOP(=O)(OCC)OC[C@]12CCC(C)(C)CC1C1=CC[C@@H]3[C@@]4(C)CCCNC(C)(C)[C@@H]4CC[C@@]3(C)[C@]1(C)CC2 (stereo partly specified)', 'growth', '55.1% (inactive)');

### Prompt # return recorded growth for input "CC1(C)C=Cc2cc(/C(N)=N/C(N)=N/c3nc4ccccc4s3)ccc2O1"
### Response 52.3% (inactive)

### Prompt Provide growth value for the following molecule: "CN1CCN(c2ccc(Nc3nc(NCCCNS(=O)(=O)c4ccc(Cl)cc4)c4sccc4n3)cc2)CC1"
### Response 7.38% (active)

### Prompt For the molecule "CN1CCN(CCNc2nc(-c3cccc(NS(=O)(=O)c4cccc5c(N(C)C)cccc45)c3)cs2)CC1" , give its reported growth.
### Response 70.7% (inactive)

### Prompt Identify measured growth corresponding to "O=C1[C@@H]2Cc3c([nH]c4ccccc34)[C@@H](c3ccc(Cl)cc3)N2C(=O)CN1C1CCN(Cc2ccccc2)CC1"
### Response 20% (inactive)

### Prompt Give a short answer stating reported growth for "CC(=O)c1c([Si](C)(C)C)c2cc(C#N)ccn2c1C(=O)c1ccc(Br)cc1" .
### Response 95.5% (inactive)

### Prompt Please report the measured growth for "CCCCCCNC(=O)Oc1ccc(/C(=C(/C)c2ccc(Cl)cc2)c2ccc(OCCN3CCCCCC3)cc2)cc1"
### Response 40.9% (inactive)

### Prompt Report growth, nothing else, for this molecule: "O=C(CSc1nnc(-c2cccs2)n1-c1ccccc1)Nc1ccccc1F"
### Response 96.6% (inactive)

### Prompt Return the recorded growth value; entry: "NC(N)=NS(=O)(=O)c1ccc(N=Nc2c(N)nn(-c3ccc([N+](=O)[O-])cc3[N+](=O)[O-])c2N)cc1"
### Response 107% (inactive)

### Prompt Specify measured growth for "Brc1cc(-c2cc(-c3ccc4c(c3)OC=CO4)[nH]n2)cs1" .
### Response 97.8% (inactive)

### Prompt Quote growth reported for "c1ccc(-c2cn3c(-c4c[nH]c5ccccc45)csc3n2)cc1" please.
### Response 60.8% (inactive)

### Prompt Quick one: give measured growth for "Cc1ccc2c(n1)C(=O)C(Cl)=C(Nc1cc(C(F)(F)F)cc(C(F)(F)F)c1)C2=O"
### Response 95.9% (inactive)
